Origin of values: ChEMBL document CHEMBL3988442

Experimental details: In vitro enzyme assay to detect hydrolysis of chlorophenol red-beta-D-[…] directly proportional to the number of Toxoplasma stably expressing beta-galactosidase
Type: functional, organism-based, Toxoplasma gondii
Design: scale not given: in the data most compounds retested in dose-response had high values
Condition notes: 10 µM
In all, about 85,000 compounds went through this assay and about 440 (0.52%) showed an effect of 50% or more. This is one part of a sample in which strong results are shown more often than they occur.
Label rule, in plain words: Percent Effect of 20% and up is fulfilled, under 20% is not fulfilled.

>>> assigned_label("COCc1ccccc1C(=O)N1CCCC(c2cc(C)[nH]n2)C1 (centres undefined)")
"not fulfilled"
>>> assigned_label("O=S(=O)(c1ccc2c(c1)OCCO2)N1CCc2ccccc2C1")
"not fulfilled"
>>> assigned_label("Cc1nc2ccccc2nc1NCc1cccc(OCC2CCCO2)c1 (centres undefined)")
"not fulfilled"
>>> assigned_label("CCn1nc(C)c(C(C)NC(=O)c2cccc(NCC(=O)O)c2)c1C (centres undefined)")
"not fulfilled"
>>> assigned_label("CC(NC(=O)c1ccc(Cl)cc1)c1nnc(SCC(=O)O)n1C (centres undefined)")
"fulfilled"
>>> assigned_label("CCN1CCN(S(=O)(=O)c2cnc(NC(C)=O)s2)CC1")
"not fulfilled"
>>> assigned_label("COc1ccc(N2Cc3nc(N)ncc3C2=O)cc1")
"not fulfilled"
>>> assigned_label("CC(NC(=O)NCCOc1ccc(Cl)cc1)c1nncn1C (centres undefined)")
"not fulfilled"
>>> assigned_label("Cl.c1csc(-c2noc(C3CNC3)n2)c1")
"fulfilled"
>>> assigned_label("CCCS(=O)(=O)N1CCC(NC(=O)c2cc3ccccc3s2)CC1")
"not fulfilled"
>>> assigned_label("COCC(=O)Nc1ccnn1-c1ccc(Cl)cc1")
"fulfilled"
>>> assigned_label("CCN(CC)c1nc(Nc2cccc(C(=O)O)c2)nc2ccccc12")
"not fulfilled"
>>> assigned_label("CN(C)c1cc(CNC(=O)c2cnccn2)ccn1")
"fulfilled"
>>> assigned_label("O=C(NCCNc1ncccn1)C1CC(=O)N(Cc2ccccn2)C1 (centres undefined)")
"fulfilled"
>>> assigned_label("COc1ccc(NC(=O)Cn2nc(C)c(C(C)=O)c2C)cc1")
"fulfilled"
>>> assigned_label("CC(c1ccccc1)n1c(SCC(=O)O)nnc1-c1ccccc1Cl (centres undefined)")
"not fulfilled"
>>> assigned_label("CCC1=NC(SCC(=O)c2ccccc2)c2cc(CC)sc2N1 (centres undefined)")
"fulfilled"
>>> assigned_label("CC(NC(=O)c1ccc(Cl)cc1)c1nnc(SCC(N)=O)n1C (centres undefined)")
"not fulfilled"
>>> assigned_label("O=C(NCCNc1ncccn1)C1CC(=O)N(Cc2ccccc2)C1 (centres undefined)")
"not fulfilled"
>>> assigned_label("COc1ccc(C(=O)CNC(=O)c2nc(Cl)sc2C(C)C)cc1")
"not fulfilled"
>>> assigned_label("COc1c(C(=O)N2CCNC(=O)C2)cnc2c1c(C)nn2C")
"not fulfilled"
>>> assigned_label("CCc1nc(C(=O)N2CCOCC2CC(=O)c2ccccc2)c[nH]1 (centres undefined)")
"not fulfilled"
>>> assigned_label("CC(=O)c1c(C)nn(CC(=O)Nc2ccc(F)cc2)c1C")
"not fulfilled"
>>> assigned_label("N#Cc1ccc(NCc2cccc(OCC3CCCO3)c2)nc1 (centres undefined)")
"not fulfilled"
>>> assigned_label("CN(C)C(=O)N1CC2(CCOCC2)c2cc(NS(=O)(=O)C3CC3)ccc21")
"not fulfilled"
>>> assigned_label("O=C(COc1ccc2c(c1)CCCC2=O)NCc1ccco1")
"not fulfilled"
>>> assigned_label("CCC1=NC(SCC(=O)c2ccc(Cl)cc2)c2cc(CC)sc2N1 (centres undefined)")
"fulfilled"
>>> assigned_label("COc1c(C)cnc(CN(C)C2CCN(C3CCOCC3)CC2)c1C")
"not fulfilled"
>>> assigned_label("O=C(COc1ccc2c(c1)CCC2)NCc1ccco1")
"fulfilled"
>>> assigned_label("COCCOCC(=O)Nc1ccnn1-c1ccc(Cl)cc1")
"not fulfilled"
>>> assigned_label("CCOCCC(=O)Nc1ccnn1-c1ccc(Cl)cc1")
"not fulfilled"
>>> assigned_label("COC(=O)c1cnc2c(c(C)nn2C)c1OC")
"fulfilled"
>>> assigned_label("c1csc(-c2noc(C3CCCOC3)n2)c1 (centres undefined)")
"not fulfilled"
>>> assigned_label("COc1ccc(NC(=O)Cn2nc(C)c(C)cc2=O)cc1")
"not fulfilled"
>>> assigned_label("Cc1cccc(C)c1OCC(=O)N1CCOCC1c1ncon1 (centres undefined)")
"fulfilled"
>>> assigned_label("CCc1ncc(C(=O)c2ccc(OC)cc2)n1C")
"not fulfilled"
>>> assigned_label("CCCNCc1ccc(OCc2ccc3c(c2)OCCO3)cc1.Cl")
"fulfilled"
>>> assigned_label("O=C(COc1ccc2c(c1)OCO2)NCc1ccco1")
"not fulfilled"
>>> assigned_label("Cc1cccc(OCCN2CCN(Cc3noc(C)n3)CC2)c1")
"not fulfilled"
>>> assigned_label("CCc1nc(NCC(=O)N2CCOCC2)c2c(n1)c(C)nn2CC")
"not fulfilled"
>>> assigned_label("O=C(NCCNc1ncccn1)C1CC(=O)N(Cc2ccco2)C1 (centres undefined)")
"not fulfilled"
>>> assigned_label("CC(=O)c1c(C)nn(CC(=O)Nc2ccc(Br)cc2)c1C")
"fulfilled"
>>> assigned_label("CCC1=NC(SCC(=O)c2ccc(OC)cc2)c2cc(CC)sc2N1 (centres undefined)")
"fulfilled"
>>> assigned_label("Cc1ccc(Oc2cc(F)ccc2O[C@@H]2CCC[C@@H](N)[C@H]2O)cc1")
"fulfilled"
>>> assigned_label("CNCc1ccc(OCc2ccc3c(c2)OCCO3)cc1.Cl")
"not fulfilled"
>>> assigned_label("CCN(CC)CCNC(=O)c1ccc(-n2ccc3ccccc32)s1")
"fulfilled"
>>> assigned_label("O=C(NCCCN1CCCC1=O)c1ccc(-n2ccc3ccccc32)s1")
"not fulfilled"
